Experiment: chemical genetic growth profiling, strain panel (AID 1159580);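 further: tested at 20 µM; growth read once vehicle control cultures reached saturation at 30 °C; 1 = growth at the plate median or of vehicle wells; lower values mean less growth of the strain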
Conditions: S. cerevisiae deletion strains, growth OD, locus YOL147C, strain pex11, stronger effect = lower value
Hit rate of the full screen: of about 5,500 compounds, about 2,000 (36%) were called active. Not shown: some 18% with an inconclusive outcome. The list shows a part of the results.
// reported normalized growth per item
value kind: normalized growth

- Cc1ccc2c(c1)C1(C)CCCC(C)(C(=O)O)C1CC2 (stereo unspecified): 1
- CC(=O)N[C@@H](Cc1c[nH]c2ccccc12)C(N)=O: 1
- CN(C)CCCN1c2ccccc2CCc2ccccc21: 0.994
- CN(C)CCCN1c2ccccc2Sc2ccc(C(F)(F)F)cc21: 0.991
- CC(=O)O[C@@H]1C=C[C@@]2(C)C(C[C@@H](OC(C)=O)[C@@]3(C)C4=CC(=O)O[C@@H](c5ccoc5)[C@]4(C)CCC23)C1(C)C (stereo partly specified): 0.0888
- Cc1cc(=O)oc2cc(O)c(O)cc12: 0.993
- NS(=O)(=O)c1cc2c(cc1Cl)NC(CSCc1ccccc1)=NS2(=O)=O: 0.985
- CN(C)C1C(=O)C(C(N)=O)=C(O)C2(O)C(=O)C3=C(O)c4c(O)ccc(Cl)c4C(C)(O)C3CC12 (stereo unspecified): 0.992
- CC(C)c1ccc2c(c1)CCC1C(C)(C(N)=O)CCCC21C (stereo unspecified): 0.965
- CN(C)CCCN1c2ccccc2Sc2ccc(Cl)cc21: 1.02
- CC(=O)O[C@@H]1CC2C(C)(C)C(=O)C=C[C@]2(C)C2CC[C@]3(C)C(=CC(=O)O[C@H]3c3ccoc3)[C@@]21C (stereo partly specified): 0.982
- CC(=O)O[C@H]1CC[C@@]2(C)C(C[C@@H](OC(C)=O)[C@@]3(C)C4=CC(=O)O[C@@H](c5ccoc5)[C@]4(C)CCC23)C1(C)C (stereo partly specified): 1
- CC(=O)OC1CCC2(C)C(CC(OC(C)=O)C3(C)C4=CC(=O)OC(c5ccoc5)C4(C)CCC23)C1(C)C (stereo unspecified): 0.995
- CN(C)C(=O)Oc1cccc([N+](C)(C)C)c1: 0.985
- CN(C)CCCN1c2ccccc2CCc2ccc(Cl)cc21: 0.989
- CCCOc1ccc2nc(NC(=O)OC)[nH]c2c1: 0.975
- NC1=NCCN1CC(=O)O: 0.995
- CCCSc1ccc2nc(NC(=O)OC)[nH]c2c1: 0.967
- CC(C)CC1NC(=O)CNC1=O (stereo unspecified): 0.99
- CC(=O)O[C@@H]1CC2C(C)(C)[C@H](O)C=C[C@]2(C)C2CC[C@]3(C)C(=CC(=O)O[C@H]3c3ccoc3)[C@@]21C (stereo partly specified): 0.996
- CC(C)CCCC(C)[C@H]1CCC2C3C(=O)C=C4C[C@@H](O)CC[C@]4(C)C3CC[C@@]21C (stereo partly specified): 1.01
